Experiment: Intestinal S9 fraction stability, mouse
Settings: male, CD-1, mouse, s9, Half-life, calculated value in parentheses, control compound, mouse intestinal S9 fraction
Experimental: Reaction mixture, minus cofactors, was prepared as described below. Test article was added into the reaction mixture at a final concentration of 1 μM. […] Halflives were calculated using GraphPad software, fitting to a single-phase exponential decay equation. Reaction mixture, minus cofactors, was prepared as described below. […] Halflives were calculated using GraphPad software, fitting to a single-phase exponential decay equation. […]
quantity: half-life (min)
Number only, in min; omit the unit.

[Q] Quick check: half-life of C[C@]12CC[C@H]3[C@@H](CCC4=CC(=O)CC[C@@]43C)[C@@H]1CC[C@@H]2O [Testosterone, testosterone, reference compound] ?
[A] 90

* * *

experiment: in vitro; conditions: both, human, 30 min, 1 μM
# Concentration (μM) of analyte PEA, 30 min per entry
Number only, in µM; omit the unit.

Example cases with answers are listed next.
1. CCCCCCCCCCCCCCCC(=O)NCCOC(=O)CCC(=O)OC[C@H]1O[C@@](CO)(O[C@H]2O[C@H](CO)[C@@H](O)[C@H](O)[C@H]2O)[C@@H](O)[C@@H]1O : 0.13
2. CCCCCCCCCCCCCCCC(=O)NCCOC(=O)CCC(=O)OCC(COC(=O)CCC)OC(=O)CCC (stereo not shown) : 0.14
3. CCCCCCCCCCCCCCCC(=O)NCCOC(=O)CCC : 0.096
4. CCCCCCCCCCCCCCCC(=O)NCCOC(=O)CCC(=O)OCC(COC(=O)CCCCCCC)OC(=O)CCCCCCC (stereo not shown) [Compound I-3, PEA-Succinate-Glycerol-Di-Caprylic] : 0.015
5. CCCCCCCCCCCCCCCC(=O)NCCOC(=O)CCC(=O)OCC(O)CO (stereo not shown) : 0.088
6. CCCCC/C=C\C/C=C\CCCCCCCC(=O)OCCNC(=O)CCCCCCCCCCCCCCC : 0.022

[Q] Quick check: Concentration (μM) of analyte PEA, 30 min of CC/C=C\C/C=C\C/C=C\C/C=C\C/C=C\CCCC(=O)OCCNC(=O)CCCCCCCCCCCCCCC ?
[A] 0.025

* * *

assay: in vitro; conditions: both, human, s9, 0.5 h, 1 μM
quantity: % Remaining of Initial (n = 1), 30 min (%)
Number only, in %; omit the unit.

1) CCCCCCCCCCCCCCCC(=O)NCCOC(=O)CCC : 28
2) CCCCC/C=C\C/C=C\CCCCCCCC(=O)OCCNC(=O)CCCCCCCCCCCCCCC : 82
3) CC/C=C\C/C=C\C/C=C\C/C=C\C/C=C\CCCC(=O)OCCNC(=O)CCCCCCCCCCCCCCC : 38
4) CCCCCCCCCCCCCCCC(=O)NCCOC(=O)CCC(=O)OC[C@H]1O[C@@](CO)(O[C@H]2O[C@H](CO)[C@@H](O)[C@H](O)[C@H]2O)[C@@H](O)[C@@H]1O : 9.8
5) CCCCCCCCCCCCCCCC(=O)NCCOC(=O)CCC(=O)OCC(O)CO (stereo not shown) : 1.2

[Q] Quick check: % Remaining of Initial (n = 1), 30 min of CCCCCCCCCCCCCCCC(=O)NCCOC(=O)CCC(=O)OCC(COC(=O)CCCCCCC)OC(=O)CCCCCCC (stereo not shown) [Compound I-3, PEA-Succinate-Glycerol-Di-Caprylic] ?
[A] 83
